Source listed as the supplement of paper PMC10567573.

B1: KLHL14 (parent)
chain: YVIGGRNETGYLSSVECYNLETNE

Variants of: B1
Experiment: protein stability index of a GFP-peptide fusion (GPS, HEK-293T) (PSI 1-6); higher = more stable;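 further: lentivirally expressed fusions sorted by FACS into six bins by GFP to DsRed ratio, PSI derived from sequencing read proportions per bin multiplied by bin number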
Settings: c terminus: a fixed tail appended
Returns one of YES or NO; YES when protein stability index is >= 2.

> print(dat)
    variant.spec  category
 1          S13N        NO
 2          E21P        NO
 3          N19C        NO
 4           I3A       YES
 5           V2Y       YES
 6          N19T       YES
 7          L20Q       YES
 8          T22K       YES
 9           R6Q       YES
10          Y11H       YES
11          L20S       YES
12          N23E       YES
13          C17G       YES
14          C17E       YES
15          G10F       YES
16          V15Y        NO
17           N7D       YES
18           G4T        NO
